Source listed as the RNAGym collection of RNA variant scans (doi:10.1093/molbev/msab373).

B1: Azoarcus group I ribozyme (parent)
chain: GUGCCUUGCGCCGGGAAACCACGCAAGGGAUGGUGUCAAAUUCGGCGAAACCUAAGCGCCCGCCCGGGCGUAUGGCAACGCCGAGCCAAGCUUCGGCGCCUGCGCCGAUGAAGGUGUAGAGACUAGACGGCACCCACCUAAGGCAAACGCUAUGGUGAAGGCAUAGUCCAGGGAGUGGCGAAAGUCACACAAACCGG

Variants of: B1
test: reverse-splicing fitness (ratio to wild type); higher = more active; in vitro selection; Mg2+ level not given
Param threshold (0.01) applies to reverse-splicing fitness; output yes when value >= threshold, no when value < threshold.

C82U A111C A120G A145G C150U C169G U176A; yes
A145C U176G; yes
A111U A120C A145C C150U U176C; yes
C82U A111U A145C C150G C169U U176A; no
C82A A111U A120C A145G C150G C169A U176G; no

Ask: Does C82A A111C A120G C150U C169U U176A have a reported reverse-splicing fitness of at least 0.01?
Reply: yes

Ask: Note, next up: C82U A111G A145G C169A U176A
Reply: yes

Ask: Note, next up: C82U A111G A120G A145U C150G U176G
Reply: no

Ask: Note, next up: A111U A120G A145C C150U C169U
Reply: yes

Ask: Note, next up: C82U A111U A145U C150G C169A U176C
Reply: no
